Where these numbers come from: patent US20090298800A1

Listing of recorded IC50 by entry.
System: RT4
test_description: Proliferation assay, bladder cancer cell line RT4
Type: cell-based, human
study_conditions: Homo sapiens, RT-4; 72 h culture, CyQuant proliferation assay
Reply numerically in µM, unit not repeated.

Example results:
compound="[2H]C([2H])([2H])C(O)(CCCC1(C2=CCC3/C(=C/C=C4/CC(O)C[C@H](F)C4=C)CCC[C@]23C)CC1)C([2H])([2H])[2H] (stereo partly shown) [Compound 9]" observable=IC50 quantitative_result=4.3
compound="[2H]C([2H])([2H])C(O)(CCCC1([C@H]2CCC3/C(=C/C=C4C[C@@H](O)C[C@H](O)C4)CCC[C@@]32C)CC1)C([2H])([2H])[2H] (stereo partly shown) [Compound 1]" observable=IC50 quantitative_result=11.7
compound="[2H]C([2H])([2H])C(O)(CCCC1([C@H]2CCC3/C(=C/C=C4/C[C@@H](O)C[C@H](F)C4=C)CCC[C@@]32C)CC1)C([2H])([2H])[2H] (stereo partly shown) [Compound 5]" observable=IC50 quantitative_result=3.1

Ask: Identify the measured IC50 of [2H]C([2H])([2H])C(O)(CCCC1([C@H]2CCC3/C(=C/C=C4C[C@@H](OC(C)=O)C[C@H](OC(C)=O)C4)CCC[C@@]32C)CC1)C([2H])([2H])[2H] (stereo partly shown) [Compound 2] for RT4.
Result: 3.1

###

test_description: Determination of Maximum Tolerated Dose (MTD) in mice (serum calcium)
Format: in vivo
study_conditions: mouse, po; female C57BL/6 mice, p.o. daily for four days; highest dose without hypercalcemia (serum calcium>10.7 mg/dl)
The entries below are paired with their reported MTD at 4 days.
A complete answer gives the number and then names the unit.

molecule="[2H]C([2H])([2H])C(O)(CCCC1([C@H]2CCC3/C(=C/C=C4/C[C@@H](OC(C)=O)C[C@H](F)C4=C)CCC[C@@]32C)CC1)C([2H])([2H])[2H] (some centres unmarked)" observable="MTD at 4 days" result="0.03 mg/kg"
molecule="[2H]C([2H])([2H])C(O)(CCCC1([C@H]2CCC3/C(=C/C=C4C[C@@H](OC(C)=O)C[C@H](OC(C)=O)C4)CCC[C@@]32C)CC1)C([2H])([2H])[2H] (some centres unmarked)" observable="MTD at 4 days" result="0.03 mg/kg"
molecule="[2H]C([2H])([2H])C(O)(CCCC1([C@H]2CCC3/C(=C/C=C4/C[C@@H](OC(C)=O)C[C@H](OC(C)=O)C4=C)CCC[C@@]32C)CC1)C([2H])([2H])[2H] (some centres unmarked)" observable="MTD at 4 days" result="0.03 mg/kg"
molecule="[2H]C([2H])([2H])C(O)(CCCC1(C2=CCC3/C(=C/C=C4/CC(O)C[C@H](F)C4=C)CCC[C@]23C)CC1)C([2H])([2H])[2H] (some centres unmarked)" observable="MTD at 4 days" result="0.01 mg/kg"

In the following, a different molecule is considered.
Ask: # query: MTD at 4 days of entry [2H]C([2H])([2H])C(O)(CCCC1([C@H]2CCC3/C(=C/C=C4/C[C@@H](O)C[C@H](F)C4=C)CCC[C@@]32C)CC1)C([2H])([2H])[2H] (some centres unmarked)
Result: 0.1 mg/kg

###

Tested on: HT 1376
test_description: Proliferation assay, bladder cancer cell line HT1376
Assay type: cell-based
study_conditions: Homo sapiens, 72 h culture, CyQuant proliferation assay
observable: IC50 (µM)
# output: bare number, implied unit µM

Ask: Dear colleague, I am looking for the recorded IC50 of the following compound: C=C1/C(=C\C=C2/CCC[C@]3(C)C([C@H](C)CCCC(C)(C)O)CC[C@@H]23)C[C@@H](O)C[C@@H]1O (stereo partly shown) [1,25(OH)2D3, 1,25-dihydroxycholecalciferol, reference compound]
Result: 50

###

test_description: Determination of Maximum Tolerated Dose (MTD) in mice (serum calcium)
Type: in vivo
study_conditions: mouse, po; female C57BL/6 mice, p.o. daily for four days; highest dose without hypercalcemia (serum calcium>10.7 mg/dl)
Protocol: The maximum tolerated dose of the vitamin D3 compounds of the invention were determined in eight week-old female C57BL/6 mice (3 mice/group) dosed orally (0.1 ml/mouse) with various concentrations of Vitamin D3 analogs daily for four days. Analogs were formulated in miglyol for a final concentration of 0.01, 0.03, 0.1, 0.3, 1, 3, 10, 30, 100 and 300 μg/kg when given at 0.1 ml/mouse p.o. daily. […] Serum calcium levels were determined using a colorimetric assay (Sigma Diagnostics, procedure no. 597). […]
observable: MTD at 4 days (mg/kg)
Report the figure in mg/kg without appending any unit label.

compound="[2H]C([2H])([2H])C(O)(CCCC1(C2=CCC3/C(=C/C=C4/CC(O)C[C@H](O)C4=C)CCC[C@]23C)CC1)C([2H])([2H])[2H] (stereo partly shown) [Compound 8]" quantitative_result=0.01
compound="[2H]C([2H])([2H])C(O)(CCCC1([C@H]2CCC3/C(=C/C=C4C[C@@H](O)C[C@H](O)C4)CCC[C@@]32C)CC1)C([2H])([2H])[2H] (stereo partly shown) [Compound 1]" quantitative_result=0.03

Ask: If you can, please state the reported MTD at 4 days value of [2H]C([2H])([2H])C(O)(CCCC1([C@H]2CCC3/C(=C/C=C4/C[C@@H](O)C[C@H](O)C4=C)CCC[C@@]32C)CC1)C([2H])([2H])[2H] (stereo partly shown) [Compound 3] .
Result: 0.03

Ask: Suppose we examine the compound [2H]C([2H])([2H])C(O)(CCCC1(C2=CCC3/C(=C/C=C4/CC(O)C[C@H](O)C4)CCC[C@]23C)CC1)C([2H])([2H])[2H] (stereo partly shown) [Compound 7] ; what MTD at 4 days value has been reported?
Result: 0.001

###

compounds and their reported IC50
Tested on: RT4
test_description: Proliferation assay, bladder cancer cell line RT4
Type: cell-based, human
study_conditions: Homo sapiens, RT-4; 72 h culture, CyQuant proliferation assay
Give just the number in nM; leave the unit off.

compound="[2H]C([2H])([2H])C(O)(CCCC1([C@H]2CCC3/C(=C/C=C4/C[C@@H](OC(C)=O)C[C@H](F)C4=C)CCC[C@@]32C)CC1)C([2H])([2H])[2H] (some centres unmarked) [Compound 6]" readout_unit=nM quantitative_result=4500
compound="[2H]C([2H])([2H])C(O)(CCCC1(C2=CCC3/C(=C/C=C4/CC(O)C[C@H](O)C4=C)CCC[C@]23C)CC1)C([2H])([2H])[2H] (some centres unmarked) [Compound 8]" readout_unit=nM quantitative_result=2400
compound="[2H]C([2H])([2H])C(O)(CCCC1(C2=CCC3/C(=C/C=C4/CC(O)C[C@H](O)C4)CCC[C@]23C)CC1)C([2H])([2H])[2H] (some centres unmarked) [Compound 7]" readout_unit=nM quantitative_result=8900
compound="[2H]C([2H])([2H])C(O)(CCCC1([C@H]2CCC3/C(=C/C=C4/C[C@@H](OC(C)=O)C[C@H](OC(C)=O)C4=C)CCC[C@@]32C)CC1)C([2H])([2H])[2H] (some centres unmarked) [Compound 4]" readout_unit=nM quantitative_result=3000

Ask: Value lookup for IC50; key = [2H]C([2H])([2H])C(O)(CCCC1([C@H]2CCC3/C(=C/C=C4/C[C@@H](O)C[C@H](O)C4=C)CCC[C@@]32C)CC1)C([2H])([2H])[2H] (some centres unmarked) [Compound 3]
Result: 2900

###

Readings of pIC50 for the listed molecules
Tested on: RT112
test_description: Proliferation assay, bladder cancer cell line RT112
Format: cell-based, human
study_conditions: Homo sapiens, RT-112; 72 h culture, CyQuant proliferation assay
Hey, just a heads up that pIC50 is the negative log base 10 of the concentration in molar.

# count of solved cases: 4
molecule="[2H]C([2H])([2H])C(O)(CCCC1([C@H]2CCC3/C(=C/C=C4/C[C@@H](O)C[C@H](O)C4=C)CCC[C@@]32C)CC1)C([2H])([2H])[2H] (stereo partly drawn)" observable=pIC50 quantitative_result=4.71
molecule="[2H]C([2H])([2H])C(O)(CCCC1([C@H]2CCC3/C(=C/C=C4C[C@@H](OC(C)=O)C[C@H](OC(C)=O)C4)CCC[C@@]32C)CC1)C([2H])([2H])[2H] (stereo partly drawn)" observable=pIC50 quantitative_result=4.79
molecule="[2H]C([2H])([2H])C(O)(CCCC1([C@H]2CCC3/C(=C/C=C4/C[C@@H](O)C[C@H](F)C4=C)CCC[C@@]32C)CC1)C([2H])([2H])[2H] (stereo partly drawn)" observable=pIC50 quantitative_result=4.80
molecule="[2H]C([2H])([2H])C(O)(CCCC1([C@H]2CCC3/C(=C/C=C4/C[C@@H](OC(C)=O)C[C@H](OC(C)=O)C4=C)CCC[C@@]32C)CC1)C([2H])([2H])[2H] (stereo partly drawn)" observable=pIC50 quantitative_result=4.73

Ask: Look up pIC50 for this molecule: [2H]C([2H])([2H])C(O)(CCCC1([C@H]2CCC3/C(=C/C=C4/C[C@@H](OC(C)=O)C[C@H](F)C4=C)CCC[C@@]32C)CC1)C([2H])([2H])[2H] (stereo partly drawn)
Result: 4.71
